meta.source: patent US20230037815A1

Collected pKd values appear next to each entry.
Study System: protein A (UniProt P38507 37-327)
Experiment: Octet HTX (ForteBio), HCAb on AHC sensor, 1:1 fit
Keep in mind that pKd stands for -log10 of concentration in molar terms.

{"Binder": "CNG-HSA-113 (VHH) VHH: GVQLLESGGGLVQPGGSLRLSCAASGFTFSSFGMSWVRQAPGKGLEWVSSISGTGSDTLYADSVKGRFTISRDNSKNTLYLQMNSLRPEDTAVYYCTIGGSLRYSSQGTLVTVSS", "pKd": 8.77}
{"Binder": "CNG-HSA-101 (VHH) VHH: KVQLVESGGGLVQPGGSLRLSCAASGFTFSSFGMTWVRQAPGKGLEWVSSISGSGSDTLYADSVRGRFTISRDNSKNTLYLQMNSLRAEDTAVYYCTIGGSLSPSSQGTLVTVSS", "pKd": 8.74}
{"Binder": "CNG-HSA-111 (VHH) VHH: KVQLVESGGGLVQPGGSLRLSCAASGFTFSSFGMSWVRQAPGKGLEWVSSISGSGSDTLYADSVEGRFTISRDNSKNTLYLQMNSLRAEDTAVYYCTIGGSLKQSSQGTLVTVSS", "pKd": 8.55}

Would you kindly look at the next entry?
Lab note: measured pKd of CNG-HSA-108 (VHH) VHH: KVQLVESGGGLVQPGGSLRLSCAASGFTFGSFGMSWVRQAPGKGLEWVSSISGSGADTLYADSVKGRFTISRDNSKNTLYLQMNSLRAEDTAVYYCTIGGSLRASSQGTLVTVSS was 8.53
